Each recorded value in this set is attributed to patent US9527849B2.

# test-target: PDE3
# assay-text: In vitro activity against PDE isoenzyme
# test-parameters: PDE3
property-label: pIC50
Numbers only, as −log10 of the molar value.

Lookup: Return reported pIC50; argument: CCCOc1ccc(S(=O)(=O)N(C)CCN2CCCC2)cc1-c1nc2c(CCC)nn(C)c2c(=O)[nH]1 [Maleate of compound Z]
Found: 4.66

###

# assay-text: Comparison of solubility in water and buffer solutions
# Type: physicochemical
# test-parameters: hydrochloric acid solution, pH 1, simulated gastric fluid, thermodynamic from solid, hydrochloric acid solution (pH 1.0); read-out: Solubility, hydrochloric acid solution (pH 1.0)
property-label: solubility

Lookup: Return reported solubility; argument: CCCOc1ccc(S(=O)(=O)N(C)CCN2CCCC2)cc1-c1nc2c(CCC)nn(C)c2c(=O)[nH]1 [Maleate of compound Z]
Found: > 42 mg/mL
